As a worked illustration, we turn to IC50 data collected for RPE65 (Bos taurus).

| compound | IC50 |
| --- | --- |
| CCCC(CCC)C(=O)Oc1cccc(C(O)CCN)c1.O=CO (stereo not drawn) | 102 nM |
| CCC(CC)C(=O)Oc1cccc(C(O)CCN)c1.O=CO (stereo not drawn) | 69 nM |
| NCCC(O)c1cccc(OC(=O)C2CCCCC2)c1.O=CO (stereo not drawn) | 164 nM |
